System: LC-2-ad
Assay: relative viability (nuclei count vs DMSO), 5 days (fraction); higher = more cells survive
Conditions: first compound 0.3162 µM
EXPERIMENTAL READOUT: relative viability

COMPOUND	EXPERIMENTAL READOUT	VALUE OBSERVED
O=c1cc(N2CCOCC2)oc2c(-c3cccc4c3sc3ccccc34)cccc12 + CC1(C)CCC(c2ccc(Cl)cc2)=C(CN2CCN(c3ccc(C(=O)NS(=O)(=O)c4ccc(N[C@H](CCN5CCOCC5)CSc5ccccc5)c(S(=O)(=O)C(F)(F)F)c4)cc3)CC2)C1 [Navitoclax] (partner 0.5 µM)	relative viability	0.546
CCN(CC)CCCCNc1ncc2cc(-c3cc(OC)cc(OC)c3)c(NC(=O)NC(C)(C)C)nc2n1 + CCNC(=O)c1noc(-c2cc(C(C)C)c(O)cc2O)c1-c1ccc(CN2CCOCC2)cc1 [Luminespib] (partner 0.01 µM)	relative viability	1.04
CCN(CC)CCCCNc1ncc2cc(-c3cc(OC)cc(OC)c3)c(NC(=O)NC(C)(C)C)nc2n1 + C[C@]1(O)C[C@@H](c2nc(-c3ccc4ccc(-c5ccccc5)nc4c3)c3c(N)nccn32)C1 [Linsitinib] (partner 1 µM)	relative viability	0.876
O=c1cc(N2CCOCC2)oc2c(-c3cccc4c3sc3ccccc34)cccc12 + O=C(c1cc(Cc2n[nH]c(=O)c3ccccc23)ccc1F)N1CCN(C(=O)C2CC2)CC1 [Olaparib] (partner 8 µM)	relative viability	0.764

Where these numbers come from: the supplement of paper PMC10307832
